target_under_test: UniProt Q13546
test_method_notes: ADP-Glo kinase assay (RIPK1 activity, conversion of ATP to ADP)
Assay type: biochemical
test_context: 5 nM RIPK1, 50 μM ATP, 6 h reaction; read-out: RIPK1 Enzyme Avg IC50
readout_type: IC50 (µM)

[P] N#Cc1cnn(CC23CC(C(=O)N4N=CCC4c4cnccn4)(C2)C3)c1 (stereo not shown)
[Q] N#Cc1ccc2c(ccn2CC23CC(C(=O)N4N=CCC4c4cc(F)cc(F)c4)(C2)C3)n1 (stereo not shown)
[R] O=C(Nc1cc(Cl)ncn1)C12CC(C(=O)N3N=CCC3c3cc(F)cc(F)c3)(C1)C2 (stereo not shown)
Please sort the compounds listed above from highest to lowest IC50. Would you mind listing the labels in the order asked for? R, P, Q

====

target_under_test: RIPK1 (Homo sapiens (Human), UniProt Q13546)
Sequence (Q13546 1-327): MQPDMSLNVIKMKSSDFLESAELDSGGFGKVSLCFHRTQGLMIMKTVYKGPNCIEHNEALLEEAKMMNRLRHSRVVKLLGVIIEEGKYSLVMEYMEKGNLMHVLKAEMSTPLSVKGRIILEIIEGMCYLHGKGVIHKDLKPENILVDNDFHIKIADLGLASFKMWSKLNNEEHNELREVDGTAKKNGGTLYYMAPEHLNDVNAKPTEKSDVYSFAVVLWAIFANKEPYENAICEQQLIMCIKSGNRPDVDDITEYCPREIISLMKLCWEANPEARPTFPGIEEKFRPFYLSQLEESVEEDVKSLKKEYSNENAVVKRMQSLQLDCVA
test_method_notes: ADP-Glo kinase assay (RIPK1 activity, conversion of ATP to ADP)
Format: biochemical
test_context: 5 nM RIPK1, 50 μM ATP, 6 h reaction; read-out: RIPK1 Enzyme Avg IC50
Procedure: In order to measure RIPK1 activity the ADP-Glo kinase assay (Promega, Catalog #V7002) was used to measure the conversion of ATP to ADP. […] Luminescence was measured using a BioTek Synergy™ NEO plate reader. IC50 values were calculated using a four-parameter logistic curve fit using Genedata Screener software.
readout_type: IC50 (nM)

Answered examples (5):
1) COc1ccc2cnn(CC34CC(C(=O)N5N=CCC5c5cc(F)cc(F)c5)(C3)C4)c2c1 (stereo not drawn) | 111
2) N#Cc1cccc(OCC23CC(C(=O)N4CC(F)CC4c4cccc(F)c4)(C2)C3)c1 (stereo not drawn) | 183
3) N#Cc1cc(NCC23CC(C(=O)N4N=CCC4c4cc(F)cc(F)c4)(C2)C3)ncn1 (stereo not drawn) | 243
4) O=C(N1CC(F)CC1c1cccc(F)c1)C12CC(C(F)c3ccccc3)(C1)C2 (stereo not drawn) | 31
5) Cc1cncc(C2CC=NN2C(=O)C23CC(Cn4cc(C#N)cn4)(C2)C3)n1 (stereo not drawn) | 343

[P] NC(=O)c1cc(OCC23CC(C(=O)N4N=CCC4c4cc(F)cc(F)c4)(C2)C3)ncn1 (stereo not drawn)
[Q] N#Cc1cccc(NC(=O)C23CC(C(=O)N4N=CCC4c4cc(F)cc(F)c4)(C2)C3)c1 (stereo not drawn)
Given P and given Q , which shows the smaller recorded IC50? # respond with the chosen item's label P

[P] N#Cc1ccc2c(cnn2CC23CC(C(=O)N4CCC4c4ccc(F)cc4)(C2)C3)c1 (stereo not drawn)
[Q] O=C(N1N=CCC1c1cc(F)cc(F)c1)C12CC(Cn3cnc4ccccc43)(C1)C2 (stereo not drawn)
[R] N#Cc1ccnc(OCC23CC(C(=O)N4CC(F)CC4c4cccc(F)c4)(C2)C3)c1 (stereo not drawn)
Task field, ranking: reported IC50, descending order. Would you mind listing the labels in the order asked for? P, R, Q

====

Measured pIC50 by item
System: human monocytic cell line U937
test_method_notes: Human U937 cellular necroptosis assay (TNFalpha + z-VAD-FMK, Cell Titer-Glo viability)
Type: cell-based
test_context: U937 cells, 25 ng/mL human TNFalpha + 25 μM z-VAD-FMK, 22 h; read-out: hU937 Avg IC50
pIC50 (log units): -log10 of the concentration in mol/L.

1) N#Cc1cnc(OCC23CC(C(=O)NCc4ccccc4F)(C2)C3)cn1 [Example 300] | 5.13
2) O=C(N1N=CCC1c1cc(F)cc(F)c1)C12CC(Cn3ncc4ncccc43)(C1)C2 (stereo not shown) [Example 65] | 7.36
3) N#Cc1cnc2ncn(CC34CC(C(=O)N5N=CCC5c5cc(F)cc(F)c5)(C3)C4)c2c1 (stereo not shown) | 5.91
4) O=C(N1N=CCC1c1cc(F)cc(F)c1)C12CC(Cn3cnc4ncccc43)(C1)C2 (stereo not shown) | 5.86
5) N#Cc1cnc(OCC23CC(C(=O)NCc4ccccc4F)(C2)C3)cn1 [Example 293] | 5.82
6) Cn1cc(-c2cc(OCC34CC(C(=O)N5CC(F)CC5c5cccc(F)c5)(C3)C4)ncn2)cn1 (single isomer, unassigned) | 6.15

Param item = O=C(N1N=CCC1c1cc(F)cc(F)c1)C12CC(Cn3ncc4ncccc43)(C1)C2 (stereo not shown) [Example 148] ; retrieve measured pIC50. 6.04

====

target_under_test: RIPK1 (Homo sapiens (Human), UniProt Q13546)
test_method_notes: ADP-Glo kinase assay (RIPK1 activity, conversion of ATP to ADP)
Assay type: biochemical
test_context: 5 nM RIPK1, 50 μM ATP, 6 h reaction; read-out: RIPK1 Enzyme Avg IC50
pIC50: −log10 of the molar value.
readout_type: pIC50

[P] O=C(N1N=CCC1c1cc(F)cc(F)c1)C12CC(Cn3ccc4ncc(F)cc43)(C1)C2 (centres unmarked) [Example 134]
[Q] Cc1nn(CC23CC(C(=O)N4N=CCC4c4cc(F)cc(F)c4)(C2)C3)c2ccccc12 (centres unmarked) [Example 153]
Given P and given Q , which shows the smaller recorded pIC50? # respond with the chosen item's label Q
(Q: 6.69, P: 7.62)

====

target_under_test: RIPK1 (Homo sapiens (Human))
test_method_notes: ADP-Glo kinase assay (RIPK1 activity, conversion of ATP to ADP)
Format: biochemical
test_context: 5 nM RIPK1, 50 μM ATP, 6 h reaction; read-out: RIPK1 Enzyme Avg IC50
pIC50: −log10 of the molar value.
readout_type: pIC50

1. Cc1nn(CC23CC(C(=O)N4N=CCC4c4cncc(F)c4)(C2)C3)c2ccc(C#N)cc12 (centres unmarked) | 6.62

[I] N#Cc1cnn(CC23CC(C(=O)N4N=CCC4c4cc(F)cc(F)c4)(C2)C3)c1 (centres unmarked)
[II] N#CC1CCN(CC23CC(C(=O)N4N=CCC4c4cc(F)cc(F)c4)(C2)C3)C1 (centres unmarked)
[III] O=C(N1CC(F)CC1c1cccc(F)c1)C12CC(Cn3ncc4ncccc43)(C1)C2 (centres unmarked)
[IV] Cc1cccc(C2CCCN2C(=O)C23CC(C2)C3)c1 (centres unmarked)
List the 4 entries from lowest pIC50 to highest pIC50 value. Would you mind listing the labels in the order asked for? IV, II, III, I
(IV: 5.37, II: 6.09, III: 6.73, I: 7.41)

====

target_under_test: RIPK1 (Homo sapiens (Human))
test_method_notes: ADP-Glo kinase assay (RIPK1 activity, conversion of ATP to ADP)
Type: biochemical
test_context: 5 nM RIPK1, 50 μM ATP, 6 h reaction; read-out: RIPK1 Enzyme Avg IC50
pIC50: −log10 of the molar value.
readout_type: pIC50

1. O=C(N1N=CCC1c1cc(F)ccc1F)C12CC(Cn3ncc4c(F)cccc43)(C1)C2 (stereo not shown) [Example 84] | 7.66

[a] N#Cc1cnn2ccn(CC34CC(C(=O)N5N=CCC5c5cc(F)cc(F)c5)(C3)C4)c12 (stereo not shown) [Example 146]
[b] CC(Oc1cc(Cl)ncn1)C12CC(C(=O)N3CC(F)CC3c3cccc(F)c3)(C1)C2 (stereo not shown) [Example 43]
[c] CCOC12CC(C(=O)N3CCCC3c3cccc(C)c3)(C1)C2 (stereo not shown) [Example 122]
Task field, ranking: reported pIC50, descending order. Would you mind listing the labels in the order asked for? a, c, b

[1] Cc1cn(CC23CC(C(=O)N4N=CCC4c4cc(F)cc(F)c4)(C2)C3)nc1C#N (stereo not shown) [Example 157]
[2] O=C(N1N=CCC1c1cc(F)cc(F)c1)C12CC(Cn3ncc4c(F)cncc43)(C1)C2 (stereo not shown) [Example 15]
[3] Cn1c(=O)n(CC23CC(C(=O)N4N=CCC4c4cc(F)cc(F)c4)(C2)C3)c2ccccc21 (stereo not shown) [Example 110]
Task field, ranking: reported pIC50, descending order. Would you mind listing the labels in the order asked for? 2, 1, 3

====

target_under_test: RIPK1 (Homo sapiens (Human))
test_method_notes: ADP-Glo kinase assay (RIPK1 activity, conversion of ATP to ADP)
Assay type: biochemical
test_context: 5 nM RIPK1, 50 μM ATP, 6 h reaction; read-out: RIPK1 Enzyme Avg IC50
pIC50: −log10 of the molar value.
readout_type: pIC50

Answered examples (3):
1. Cc1cnc(C2CC=NN2C(=O)C23CC(Cn4ncc5ncccc54)(C2)C3)cn1 (centres unmarked) | 6.62
2. N#Cc1ccc(OCC23CC(C(=O)N4N=CCC4c4cc(F)cc(F)c4)(C2)C3)nc1 (centres unmarked) | 7.72
3. Cc1cnc(C2CC=NN2C(=O)C23CC(Cn4ncc5cc(C#N)ccc54)(C2)C3)cn1 (centres unmarked) | 7.66

[A] Cc1ccccc1OCC12CC(C(=O)N3N=CCC3c3cc(F)cc(F)c3)(C1)C2 (centres unmarked)
[B] CNC(=O)C12CC(C(=O)N3N=CCC3c3cc(F)cc(F)c3)(C1)C2 (centres unmarked)
[C] Cc1nnc(CC23CC(C(=O)N4N=CCC4c4cc(F)cc(F)c4)(C2)C3)o1 (centres unmarked)
[D] O=C(N1N=CCC1c1cc(F)cc(F)c1)C12CC(Cn3c(=O)[nH]c4ccccc43)(C1)C2 (centres unmarked)
[E] N#Cc1cccc2cnn(CC34CC(C(=O)N5N=CCC5c5cc(F)cc(F)c5)(C3)C4)c12 (centres unmarked)
List the 5 entries from lowest pIC50 to highest pIC50 value. Would you mind listing the labels in the order asked for? B, C, E, D, A

Source listed as patent US20250214942A1.
